System: Arabidopsis thaliana
Experiment: Arabidopsis seedling root architecture screen on vertical agar plates
Assay type: in vivo
Details: uninoculated, 6 days of treatment, concentrations tested
Description: An initial dose-responded for Arabidopsis seeding growth across multiple orders of magnitude in concentration is developed, and then examined sub-lethal concentrations in greater detail. […] Arabidopsis ecotype Col-0 seeds are obtained from the Arabidopsis Biological Resource Center (ABRC). […] The change in root length is determined from the primary root length at transfer subtracted from the primary root length after 6 days of treatment. […]
test.readout: primary root growth (effect of treatment)

compound: CC1=CCC2CC1C2(C)C (stereo not shown)
reported.result: dose dependent reduction
//
compound: O=C(O)/C=C/c1ccc(O)cc1 [p-coumarate]
reported.result: dose dependent reduction
//
compound: CCn1cc[n+](C)c1 [[C2C1im][OAc], 1-ethyl-3-methylimidazolium acetate]
reported.result: dose dependent reduction
